- Test Method Notes: Acute toxicity in mice
- Details: mouse, in vivo, oral administration
Readout: LD50 (mg/kg)
Numeric only. Scale: mg/kg

**Q:** So what does the record say about LD50 for Fc1ccc(C2CCNCC2COc2ccc3c(c2)OCO3)cc1 (single isomer, unassigned) ?
**A:** 500

====

- Test Method Notes: Acute toxicity in mice
- Details: mouse, in vivo, sc, subcutaneous injection
Readout: LD50

**Q:** // query LD50 value for entry Fc1ccc(C2CCNCC2COc2ccc3c(c2)OCO3)cc1 (single isomer, unassigned) [GF 74]
**A:** 845 mg/kg

Values from patent US4007196A
